Assay: AUC (0 to 24 hrs) in rat at 50 mg/kg/day, po administered for 4 consecutive days measured on day 1
Format: ADME, organism-based
Design: dose 50 mg/kg/day, time < 24 hr, route oral
Settings: in vivo
experimental_readout: AUC(0-t) at 24 h

The reported AUC(0-t) at 24 h of the compound "CCOc1nc2ccc(Oc3ccc(/C=C/[C@H](C)NC(C)=O)cn3)c(Cl)c2s1" was 620 µg·h/mL

* * *

Biological target: Cytochrome P450 3A4 (Homo sapiens, UniProt P08684)
Sequence (P08684 whole entry): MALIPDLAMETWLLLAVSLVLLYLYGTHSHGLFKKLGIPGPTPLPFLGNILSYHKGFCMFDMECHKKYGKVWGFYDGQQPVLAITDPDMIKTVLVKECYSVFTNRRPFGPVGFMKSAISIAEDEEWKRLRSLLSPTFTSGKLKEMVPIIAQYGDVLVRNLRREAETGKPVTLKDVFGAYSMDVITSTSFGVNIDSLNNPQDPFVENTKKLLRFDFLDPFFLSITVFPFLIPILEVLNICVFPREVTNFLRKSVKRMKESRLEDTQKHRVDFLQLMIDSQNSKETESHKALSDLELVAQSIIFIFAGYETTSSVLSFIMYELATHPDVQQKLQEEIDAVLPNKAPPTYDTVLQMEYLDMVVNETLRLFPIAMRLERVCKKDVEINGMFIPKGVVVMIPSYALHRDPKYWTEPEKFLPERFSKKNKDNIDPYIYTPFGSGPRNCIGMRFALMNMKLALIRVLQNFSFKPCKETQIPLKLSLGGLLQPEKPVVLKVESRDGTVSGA
experimental_readout: IC50

Reading of IC50 for "CC(=O)N[C@@H](C)/C=C/c1ccc(Oc2ccc3nc(C(C)(C)O)sc3c2Cl)nc1" with Cytochrome P450 3A4 (Homo sapiens, UniProt P08684): > 20 µM

Reading of IC50 for "CC(=O)N[C@@H](C)/C=C/c1cnc(Oc2ccc(OC(C)C)cc2)s1" with Cytochrome P450 3A4 (Homo sapiens, UniProt P08684): > 20 µM

Reading of IC50 for "CCOc1ccc(Oc2ccc(/C=C/[C@H](C)NC(C)=O)cn2)c(Cl)c1" with Cytochrome P450 3A4 (Homo sapiens, UniProt P08684): > 20 µM

Reading of IC50 for "CC(=O)N[C@@H](C)/C=C/c1ccc(Oc2ccc(OCCF)cc2Cl)nc1" with Cytochrome P450 3A4 (Homo sapiens, UniProt P08684): > 20 µM

Reading of IC50 for "CCOc1ccc(Oc2ncc(/C=C/[C@H](C)NC(C)=O)s2)cc1" with Cytochrome P450 3A4 (Homo sapiens, UniProt P08684): > 20 µM

Reading of IC50 for "CC(=O)N[C@@H](C)/C=C/c1cnc(Oc2ccc(OCC3CC3)cc2)s1" with Cytochrome P450 3A4 (Homo sapiens, UniProt P08684): > 20 µM

Reading of IC50 for "CC(=O)N[C@@H](C)/C=C/c1ccc(Oc2ccc(OCC3CC3)cc2Cl)nc1" with Cytochrome P450 3A4 (Homo sapiens, UniProt P08684): 16 µM

Reading of IC50 for "CC(=O)N[C@@H](C)/C=C/c1ccc(Oc2ccc3nc(C(C)C)sc3c2Cl)nc1" with Cytochrome P450 3A4 (Homo sapiens, UniProt P08684): 19 µM

Reading of IC50 for "CC(=O)N[C@@H](C)/C=C/c1cnc(Oc2ccc(OCC3CC3)cc2Cl)s1" with Cytochrome P450 3A4 (Homo sapiens, UniProt P08684): > 20 µM

Reading of IC50 for "CC(=O)N[C@@H](C)/C=C/c1ccc(Oc2ccc3nc(C(C)C)sc3c2C(F)(F)F)nc1" with Cytochrome P450 3A4 (Homo sapiens, UniProt P08684): 17 µM

* * *

pIC50: −log10 of the molar value.
Listed here: compounds with reported pIC50 for UniProt:P33261.
Sequence (P33261 whole entry): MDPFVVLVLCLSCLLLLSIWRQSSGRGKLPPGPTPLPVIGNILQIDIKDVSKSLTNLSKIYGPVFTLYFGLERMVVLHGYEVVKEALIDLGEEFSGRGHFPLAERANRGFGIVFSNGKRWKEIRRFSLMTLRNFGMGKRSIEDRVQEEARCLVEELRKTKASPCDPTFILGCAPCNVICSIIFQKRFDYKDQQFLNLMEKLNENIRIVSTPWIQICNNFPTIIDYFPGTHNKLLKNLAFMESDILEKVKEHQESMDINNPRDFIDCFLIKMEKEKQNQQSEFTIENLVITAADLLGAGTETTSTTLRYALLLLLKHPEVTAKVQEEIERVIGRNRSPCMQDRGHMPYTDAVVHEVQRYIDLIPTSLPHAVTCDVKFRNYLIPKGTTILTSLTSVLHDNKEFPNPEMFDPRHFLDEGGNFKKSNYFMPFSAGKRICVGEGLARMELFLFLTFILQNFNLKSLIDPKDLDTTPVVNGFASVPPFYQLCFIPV

// known answers, use as guide
The reported pIC50 of the compound "CC(=O)N[C@@H](C)/C=C/c1nnc(Oc2ccc(OCC3CC3)cc2Cl)s1" was < 4.70

The reported pIC50 of the compound "CC(=O)N[C@@H](C)/C=C/c1cnc(Oc2ccc(OC(C)C)cc2)s1" was < 4.70

Alright, here's another compound for you.
The reported pIC50 of the compound "CC(=O)N[C@@H](C)/C=C/c1ccc(Oc2ccc3nc(C(C)C)sc3c2C(F)(F)F)nc1" was 4.74

Values were extracted from ChEMBL document CHEMBL4219273.
